System: Escherichia coli TOP10
Method description: shrunken log2 fold change of peptide-encoding DNA abundance (4.5 h post-induction vs induction); higher = less antimicrobial activity (less host growth inhibition)
Details: time post-induction: 4.5 h; library: site-saturation at positions 5, 18, 19, 20

{"columns": ["Sequence entry", "shrunken log2 fold change"],
 "data": [
  ["RRIRKRPPRLPRPRPRPECFPRP", 0.7],
  ["RRIRDRPPRLPRPRPRPMTPPRP", -0.0805],
  ["RRIRHRPPRLPRPRPRPMYFPRP", -0.00207],
  ["RRIRLRPPRLPRPRPRPITPPRP", 0.163],
  ["RRIRARPPRLPRPRPRPGDPPRP", 0.971],
  ["RRIRARPPRLPRPRPRPMTRPRP", 0.849],
  ["RRIRDRPPRLPRPRPRPLNAPRP", -0.0226],
  ["RRIRLRPPRLPRPRPRPTWFPRP", 0.0207],
  ["RRIRLRPPRLPRPRPRPFTYPRP", -0.0906],
  ["RRIRPRPPRLPRPRPRPEGKPRP", -0.124],
  ["RRIRMRPPRLPRPRPRPIDAPRP", 0.616],
  ["RRIRVRPPRLPRPRPRPWTEPRP", -0.0547],
  ["RRIRFRPPRLPRPRPRPEFMPRP", -0.109],
  ["RRIRPRPPRLPRPRPRPDTKPRP", -0.0208],
  ["RRIRQRPPRLPRPRPRPAATPRP", 0.732]
]}

---

Tested on: Escherichia coli TOP10
Method description: shrunken log2 fold change of peptide-encoding DNA abundance (4.5 h post-induction vs induction); higher = less antimicrobial activity (less host growth inhibition)
Details: time post-induction: 4.5 h; library: site-saturation at positions 5, 18, 19, 20
Lab note: anything with shrunken log2 fold change at or over 0.02 counts as class 1; the rest go in class 0.

{"columns": ["Sequence entry", "Qualitative label"],
 "data": [
  ["RRIRRRPPRLPRPRPRPSDEPRP", "class 0"],
  ["RRIRYRPPRLPRPRPRPPRNPRP", "class 1"],
  ["RRIRVRPPRLPRPRPRPNHYPRP", "class 0"],
  ["RRIRLRPPRLPRPRPRPFSIPRP", "class 0"],
  ["RRIRNRPPRLPRPRPRPWTNPRP", "class 0"],
  ["RRIRMRPPRLPRPRPRPFFCPRP", "class 0"],
  ["RRIRDRPPRLPRPRPRPTWGPRP", "class 1"],
  ["RRIRERPPRLPRPRPRPYFVPRP", "class 0"]
]}

---

Test system: Escherichia coli TOP10;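 also: peptides expressed intracellularly from a pBAD plasmid library in pooled LB shake-flask culture, induced with 0.3% L-arabinose, DNA abundance read by NGS, three biological replicates, DESeq2 with apeglm shrinkage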
Method description: shrunken log2 fold change of peptide-encoding DNA abundance (4.5 h post-induction vs induction); higher = less antimicrobial activity (less host growth inhibition)
Details: time post-induction: 4.5 h; library: site-saturation at positions 5, 18, 19, 20

{"columns": ["Sequence entry", "System under test", "shrunken log2 fold change"],
 "data": [
  ["RRIRKRPPRLPRPRPRPSAEPRP", "Escherichia coli TOP10", 0.787],
  ["RRIRKRPPRLPRPRPRPVAHPRP", "Escherichia coli TOP10", 0.353],
  ["RRIRARPPRLPRPRPRPCWCPRP", "Escherichia coli TOP10", 0.721],
  ["RRIRARPPRLPRPRPRPSTWPRP", "Escherichia coli TOP10", -0.0645],
  ["RRIRWRPPRLPRPRPRPPWSPRP", "Escherichia coli TOP10", 0.378],
  ["RRIRRRPPRLPRPRPRPDSMPRP", "Escherichia coli TOP10", -0.251],
  ["RRIRERPPRLPRPRPRPEAWPRP", "Escherichia coli TOP10", 0.0366],
  ["RRIRFRPPRLPRPRPRPHVQPRP", "Escherichia coli TOP10", -0.0901],
  ["RRIRDRPPRLPRPRPRPDHWPRP", "Escherichia coli TOP10", 0.0704],
  ["RRIRFRPPRLPRPRPRPYSFPRP", "Escherichia coli TOP10", -0.967],
  ["RRIRGRPPRLPRPRPRPQGRPRP", "Escherichia coli TOP10", 0.553],
  ["RRIRARPPRLPRPRPRPFACPRP", "Escherichia coli TOP10", 0.829],
  ["RRIRVRPPRLPRPRPRPDCAPRP", "Escherichia coli TOP10", 0.0509],
  ["RRIRCRPPRLPRPRPRPFSNPRP", "Escherichia coli TOP10", -0.117],
  ["RRIRDRPPRLPRPRPRPFWPPRP", "Escherichia coli TOP10", 0.227]
]}

Every entry's value here was drawn from the supplement of paper PMC9112550.
